Could you please report measured composite z-score for the items listed next?
test: binders of probe aHhip on microarray, primary screen, stem cell growth factor project, biochemical, small-molecule microarray, fluorescence 635/667 (AID 1087); conditions: higher = more signal;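 note: score merges spot fluorescence at 667nm with spot signal to noise ratio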

Reported composite z-score ( `Cc1nc2cc(Br)ccc2c(=O)n1Cc1cccc(O)c1` ) = 0.409

Reported composite z-score ( `COCCOC(=O)N1C(=O)[C@@]2(c3cc(C#CCCO)ccc31)[C@H](C(=O)N1CCCCCCC1)[C@H]1C(=O)O[C@H](c3ccccc3)[C@H](c3ccccc3)N1[C@@H]2c1ccccc1OCCO` ) = 0.891

Reported composite z-score ( `C=CCNC(=O)[C@@H]1[C@H]2C(=O)O[C@H](c3ccccc3)[C@H](c3ccccc3)N2[C@H](c2ccc(O)cc2)[C@@]12C(=O)Nc1ccc(C#CCC(C(=O)OC)C(=O)OC)cc12` ) = 0.0623

Reported composite z-score ( `Cc1ccc(S[C@]2(C(=O)NCc3ccccc3)CC(=O)N(Cc3cc(C(F)(F)F)cc(C(F)(F)F)c3)[C@@H]2c2ccc(CO)cc2I)cc1` ) = -0.132

Reported composite z-score ( `CCCNC(=O)[C@@]1(Sc2ccc(C)cc2)CC(=O)N(C2CCCCC2)[C@@H]1c1ccc(CO)cc1I` ) = -0.383

Reported composite z-score ( `CC(C)CNC(=O)[C@@]1(c2ccc([N+](=O)[O-])cc2)CC(=O)N(C2CCCCC2)[C@@H]1c1ccc(CO)cc1` ) = -0.132

Reported composite z-score ( `CN(C)CCCCCCNC(=O)[C@@H]1C[C@@H]2C(=O)N[C@@H](CCCCN)C(=O)N2[C@@H]1c1ccc(O)cc1` ) = 3.69

Reported composite z-score ( `CCOC(=O)C1=CC[C@@H](c2ccccc2)N(S(=O)(=O)c2ccc(C)cc2)[C@H]1c1cccc(OC)c1` ) = -0.0203

Reported composite z-score ( CN1C(=O)C2C=CC(C(O)c3ccc(F)cc3)N(NC(=O)OC(C)(C)C)C2C1=O (stereo not given) ) = -0.0464

Reported composite z-score ( CN1C(=O)C2C(C1=O)C1C=C(CCCO)C2C(C2CC2)N1Cc1cc2c(cc1Br)OCO2 (stereo not given) ) = -0.201

Reported composite z-score ( `C=C/C=C/[C@@H]1C(=C)CN([C@@H](Cc2ccccc2)C(=O)OC)[C@H]1[C@@H](O)Cc1ccccc1` ) = -0.0645

Reported composite z-score ( CC(C)C(CO)N1C(=O)[C@@H]2[C@H]3C(=O)OCC=C[C@H]3OC23C=CCN(C(C)(C)C)C(=O)[C@@H]13 (stereo not given in full) ) = -0.128

Reported composite z-score ( `CC(C)CNC(=O)[C@@H]1c2ccccc2C(=O)N(C2CCCCC2)[C@H]1c1ccc(CO)cc1` ) = 0.0497

Reported composite z-score ( `C[C@]1(C(=O)NCC(F)(F)F)c2ccccc2C(=O)N(Cc2ccccc2)[C@H]1c1ccc(CO)cc1` ) = -0.0003

Reported composite z-score ( C=C(C)[C@@H]1CC=C(C(O)C2C=CC3C(=O)N(c4ccccc4)C(=O)C3N2Nc2ccc(C#N)cc2)CC1 (stereo not given in full) ) = -0.112

Reported composite z-score ( COc1ccc(C(O)C2C=CC3C(=O)N(c4ccccc4)C(=O)C3N2Nc2ccccc2F)cc1 (stereo not given) ) = -0.0296

Reported composite z-score ( `[N-]=[N+]=Nc1ccccc1C[C@@]1(C(=O)O)N=C(c2ccc(OCCCO)cc2)O[C@@H]1c1ccccc1N=[N+]=[N-]` ) = -0.283

Reported composite z-score ( `COCC(=C=CC[C@H](O)c1cccc(OCCO)c1)C[C@H](O)COCc1ccccc1` ) = -0.476

Reported composite z-score ( C=CCC(OC(C)=O)[C@@H]1[C@@H](N(Cc2cccc3ccccc23)C(=O)Cc2ccc(F)cc2)c2cc(OCCCO)ccc2N1C(=O)c1ccc(-c2ccccc2)cc1 (stereo not given in full) ) = -0.14

Reported composite z-score ( `Cc1ccc(F)cc1S(=O)(=O)N[C@@H]1CCN(Cc2cccc3[nH]ccc23)C1` ) = -0.0994

Reported composite z-score ( COc1cc(C(O)C2C=CC3C(=O)N(Cc4ccccc4)C(=O)C3N2n2cnnc2)cc(OC)c1OC (stereo not given) ) = -0.0867

Reported composite z-score ( CCOC(=O)C1=CCC(c2ccco2)N(S(=O)(=O)c2ccc(C)cc2)C1 (stereo not given) ) = 0.127

Reported composite z-score ( `CCOC(=O)C1=CC[C@@H](c2ccccc2)N(S(=O)(=O)c2ccc(C)cc2)[C@H]1C=Cc1ccccc1` ) = 0.0373

Reported composite z-score ( O=C1OCC=C[C@H]2OC34C=CCN(c5ccc6ccccc6c5)C(=O)[C@H]3N(CCCCCO)C(=O)[C@@H]4[C@@H]12 (stereo not given in full) ) = -0.338

Reported composite z-score ( `Cc1ccc(S[C@]2(C(=O)NC(C)C)CC(=O)N(C(C)C)[C@@H]2c2ccc(CO)cc2I)cc1` ) = 0.0749

Reported composite z-score ( `O=C1c2ccccc2[C@](Cc2ccccc2I)(C(=O)NC2CC2)[C@H](c2ccc(CO)cc2)N1Cc1ccccc1C(F)(F)F` ) = -0.0726

Reported composite z-score ( `O=C(O)[C@H]1C[C@H]2C(=O)N[C@@H](Cc3ccccc3)C(=O)N2[C@H]1c1cccc(OCCO)c1` ) = 0.188

Reported composite z-score ( `COc1cc(CO)cc(I)c1O[C@H]1C=C(C(=O)NCCO)C[C@@H](NCC2CCCCC2)[C@@H]1O` ) = 0.0505

Reported composite z-score ( `COc1ccc(C(=O)Nc2cccc(CN3C(=O)[C@@]4(O[C@@H](CC(=O)N(CCO)Cc5ccccc5)[C@H]([Si](C)(C)c5ccc(OC)cc5)[C@H]4C)c4ccccc43)c2)cc1` ) = 0.0274

Reported composite z-score ( `COCCOC(=O)N1C(=O)[C@@]2(c3cc(C#CCC(C(=O)OC)C(=O)OC)ccc31)[C@H](c1ccc(O)cc1)N1[C@H](c3ccccc3)[C@H](c3ccccc3)OC(=O)[C@H]1[C@@H]2C(=O)NC[C@H](O)c1ccccc1` ) = 0.0749

---

assay: splicing luciferase reporter signal modulators, primary screen, spliceosome inhibition project, cell-based, HEK293, splice +/- reporter (AID 1101); settings: luminescence, 24 h, higher = more signal, called active from +8 up or from −8 down;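 note: HEK293 cells carrying a splicing-competent luciferase reporter gene; test concentration not given here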
Entry flag: YES if z-score reaches -0.2; NO if it does not.

Input: State whether the measured z-score reaches -0.2, counting equality as reaching it, for `CCOC(=O)C1=CC[C@@H](c2ccccc2)N(S(=O)(=O)c2ccc(C)cc2)[C@H]1c1cccc(OC)c1`
Output: NO

Input: State whether the measured z-score reaches -0.2, counting equality as reaching it, for `CO[C@H]1O[C@H](CO)[C@@H](OC(=O)CCc2ccccc2)[C@H](OC(=O)c2cc3ccccc3[nH]2)[C@H]1OC(=O)c1cc2ccccc2[nH]1`
Output: NO

Input: State whether the measured z-score reaches -0.2, counting equality as reaching it, for `COCCOC(=O)N1C(=O)[C@@]2(c3ccccc31)[C@H](c1ccccc1OCCO)N1[C@H](c3ccccc3)[C@H](c3ccccc3)OC(=O)[C@H]1[C@@H]2C(=O)N1CCCCCCC1`
Output: NO

Input: State whether the measured z-score reaches -0.2, counting equality as reaching it, for `NC(=O)NCC#Cc1ccc2c(c1)[C@]1(C(=O)N2)[C@H](C(=O)N2CCN(c3ncccn3)CC2)[C@H]2C(=O)O[C@H](c3ccccc3)[C@H](c3ccccc3)N2[C@@H]1c1ccc(OCCO)cc1`
Output: NO

Input: State whether the measured z-score reaches -0.2, counting equality as reaching it, for CCCCCCCCCCC(O)C1C=CC2C(=O)N(c3ccccc3)C(=O)C2N1Nc1ccccc1F (configuration not stated)
Output: YES

Input: State whether the measured z-score reaches -0.2, counting equality as reaching it, for `O=C(O)[C@@H]1C[C@@H]2C(=O)N3CCC[C@H]3C(=O)N2[C@@H]1c1cccc(OCCO)c1`
Output: YES

Input: State whether the measured z-score reaches -0.2, counting equality as reaching it, for `O=C1[C@@]23C=C(Br)[C@H](C[C@@H]2COC3)[C@@]12CO2`
Output: YES

---

test: splicing luciferase reporter signal modulators, primary screen, spliceosome inhibition project, cell-based, HEK293, splice +/- reporter (AID 1101); settings: luminescence, 24 h, higher = more signal, called active from +8 up or from −8 down;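 note: HEK293 cells carrying a splicing-competent luciferase reporter gene; test concentration not given here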
Assay Endpoint: z-score
Reply briefly: the number, and no unit.

Reported z-score ( `CO[C@H]1O[C@H](CO)[C@@H](OC(=O)c2ccc(Br)cc2)[C@@H]2OC(=O)[C@H](Cc3ccccc3)C/C=C/C[C@@H](Cc3ccccc3)C(=O)O[C@@H]12` ) = -0.511

Reported z-score ( `C=C[C@@H](OC)[C@H](OC(=O)Nc1ccc(SC)cc1)c1ccc(OCCO)cc1` ) = 1.46

Reported z-score ( `CCCC=C(CCC)[C@@H](NS(=O)(=O)c1cccc2cccnc12)c1ccc(-c2ccccc2)cc1` ) = -0.301

Reported z-score ( `C[C@]1(C(=O)O)c2ccccc2C(=O)N(Cc2ccc(OC(F)(F)F)cc2)[C@H]1c1ccc(CO)cc1` ) = 0.524

Reported z-score ( CC(C)C(CO)N1C(=O)[C@@H]2[C@H]3C(=O)OCC=C[C@H]3OC23C=CCN(C(C)(C)C)C(=O)[C@@H]13 (stereo partly drawn) ) = 0.454

Reported z-score ( `[N-]=[N+]=NCc1ccccc1[C@H]1OC(c2ccc(OCCCO)cc2)=N[C@@]1(Cc1ccccc1)C(=O)NCCN1CCOCC1` ) = -1.06

Reported z-score ( `COC(=O)[C@@]1(Cc2ccc(F)cc2)[C@H]2c3cc(C(=O)N(C)C)n(Cc4ccc(O)c(OC)c4)c3C[C@H]2CN1C(=O)c1ccccc1` ) = -4.34

Reported z-score ( `CCOC(=O)C[C@H]1[C@H](OC(=O)c2ccc(C(=O)c3ccccc3)cc2)[C@@H](NC(=O)CC(C)C)c2cc(OCCCO)ccc2N1C(=O)Cc1ccc(OC)cc1` ) = -0.441

Reported z-score ( `Nc1cc(Br)ccc1C(=O)O` ) = -0.00991

Reported z-score ( `C=CCNC(=O)[C@H]1[C@@H]2C(=O)O[C@@H](c3ccccc3)[C@@H](c3ccccc3)N2[C@@H](c2ccc(OCCO)cc2)[C@]12C(=O)Nc1ccc(C#CCNC(N)=O)cc12` ) = -0.595

Reported z-score ( `CCCNC(=O)[C@@]1(C)c2ccccc2C(=O)N(Cc2ccccc2)[C@H]1c1ccc(CO)cc1` ) = 1.34

Reported z-score ( COc1cc(NN2C(C(O)c3ccc(I)cc3)C=CC3C(=O)N(c4ccccc4)C(=O)C32)cc(OC)c1OC (stereo not drawn) ) = -0.329

Reported z-score ( `COC(=O)[C@@]1(Cc2ccccc2CN=[N+]=[N-])N=C(c2ccc(OCCCO)cc2)O[C@H]1c1ccccc1` ) = 0.31

Reported z-score ( CC(C)C[C@@H]1NC(=O)CNC(=O)[C@@]23C(=O)N[C@@H](Cc4ccccc4)C2[C@H](C)[C@@]2(C)O[C@H]2C3/C=C/C/C=C\CNC1=O (stereo partly drawn) ) = 0.426

Reported z-score ( `O=C1O[C@H](c2ccccc2)[C@H](c2ccccc2)N2[C@H]1[C@@H](C(=O)O)[C@]1(C(=O)Nc3ccc(C#CC4(O)CCCCCC4)cc31)[C@H]2c1ccc(O)cc1` ) = -0.574

Reported z-score ( `COCCOC(=O)N1C(=O)[C@@]2(c3cc(C#CCNC(N)=O)ccc31)[C@H](c1ccc(OCCO)cc1)N1[C@H](c3ccccc3)[C@H](c3ccccc3)OC(=O)[C@H]1[C@@H]2C(=O)NC[C@H](O)c1ccccc1` ) = 0.38

Reported z-score ( `Cc1ccc(S[C@]2(C(=O)NCC(C)C)CC(=O)N(C3Cc4ccccc4C3)[C@@H]2c2ccc(CO)cc2I)cc1` ) = -0.968

Reported z-score ( C=CCC(OC(C)=O)[C@@H]1[C@@H](N(Cc2ccc(-c3cccc(C(F)(F)F)c3)o2)C(=O)Cc2ccc(OC)cc2)c2cc(OCCCO)ccc2N1C(=O)Cc1ccc2ccccc2c1 (stereo partly drawn) ) = -1.16

Reported z-score ( `COCCOC(=O)N1C(=O)[C@@]2(c3cc(C#CCC(C(=O)OC)C(=O)OC)ccc31)[C@H](C(=O)NC[C@H](O)c1ccccc1)[C@H]1C(=O)O[C@H](c3ccccc3)[C@H](c3ccccc3)N1[C@@H]2c1ccc(OCCO)cc1` ) = 0.28

Reported z-score ( `[N-]=[N+]=Nc1ccccc1C[C@]1(C(=O)NCc2ccccc2)COC(c2ccc(OCCCO)cc2)=N1` ) = 0.439

Reported z-score ( `CCOC(=O)C1=C[C@@H](C(C)(C)C)N(S(=O)(=O)c2ccc(C)cc2)[C@H]1c1ccccc1` ) = 1.07

Reported z-score ( CN1C(=O)C2C=CC(C(O)c3cc(C(F)(F)F)cc(C(F)(F)F)c3)N(NC(=O)OC(C)(C)C)C2C1=O (stereo not drawn) ) = -0.149

Reported z-score ( `CN(C)C(=O)[C@@]1(Cc2ccccc2N=[N+]=[N-])N=C(c2ccc(OCCCO)cc2)O[C@H]1c1ccccc1` ) = 0.22

Reported z-score ( CCCCCN1CC=CC23O[C@@H]4/C=C\CCC(C)OC(=O)C4[C@H]2C(=O)N(CCCCCCO)[C@@H]3C1=O (stereo partly drawn) ) = -0.833

Reported z-score ( `O=C1C[C@@](C(=O)NCc2ccccc2)(c2ccc([N+](=O)[O-])cc2)[C@@H](c2ccc(CO)cc2I)N1CC12CC3CC(CC(C3)C1)C2` ) = -0.218

Reported z-score ( `[N-]=[N+]=NCc1ccccc1C[C@@]1(C(=O)N2CCCCC2)N=C(c2ccc(OCCCO)cc2)O[C@@H]1c1ccccc1CN=[N+]=[N-]` ) = -0.4

Reported z-score ( COc1cc(C(O)C2C=CC3C(=O)N(Cc4ccccc4)C(=O)C3N2n2cnnc2)cc(OC)c1OC (stereo not drawn) ) = -0.696

Reported z-score ( `COC(=O)C(CC#Cc1ccc2c(c1)[C@]1(C(=O)N2)[C@H](c2ccc(O)cc2)N2[C@H](c3ccccc3)[C@H](c3ccccc3)OC(=O)[C@H]2[C@@H]1C(=O)N1CCCCCCC1)C(=O)OC` ) = -0.83

Where do the numbers come from? From PubChem BioAssay.
